- Tested on: Danio rerio embryo
- Measurement notes: EC20 Heart rate; higher = less potent
- Study conditions: exposure time: 4 dpf
Measured EC20 Heart rate, listed per entry.
Form entry: value (µM) — number only.

For orientation, consider the following solved cases.
{"columns": ["Compound", "EC20 Heart rate [µM]"],
 "data": [
  ["C[Si](Cn1cncn1)(c1ccc(F)cc1)c1ccc(F)cc1", 7.13],
  ["CCO/N=C(\\CC)C1=C(O)CC(c2c(C)cc(C)cc2C)CC1=O (centres undefined)", 49.9],
  ["CC1(C)OC(=O)C(OCC2CC2)=C1c1ccc(S(C)(=O)=O)cc1", 38.8]
]}

Challenge: Specify reported EC20 Heart rate for the compound shown: CC(C)(C)C(O)C(Oc1ccc(Cl)cc1)n1cncn1 (centres undefined)
Response given: 96.8

---

- Test system: Danio rerio embryo
- Measurement notes: EC50 Eye-jaw distance_Decrease
- Study conditions: exposure time: 4 dpf
Endpoint label: EC50 Eye-jaw distance Decrease (µM)
Field format: number, assumed µM, no unit text.

Below: 2 compounds and their reported EC50 Eye-jaw distance Decrease.
{"columns": ["Compound", "Quantity unit", "EC50 Eye-jaw distance Decrease"],
 "data": [
  ["CC1(C)OC(=O)C(OCC2CC2)=C1c1ccc(S(C)(=O)=O)cc1", "µM", 123],
  ["CN(Cc1cnc2nc(N)nc(N)c2n1)c1ccc(C(=O)N[C@@H](CCC(=O)O)C(=O)O)cc1 [Methotrexate]", "µM", 197]
]}

Next compound, EC50 Eye-jaw distance Decrease to be filled in.
Challenge: Look up EC50 Eye-jaw distance Decrease of CC1(C)O[C@@H]2[C@@H](CO[C@@]3(COS(N)(=O)=O)OC(C)(C)O[C@@H]23)O1 [Topiramate] and report it.
Response given: 236

---

- System: Danio rerio embryo
- Measurement notes: EC20 Pericard size_Increase; higher = less potent
- Study conditions: exposure time: 4 dpf
Endpoint label: EC20 Pericard size Increase (µM)
Give just the number in µM; leave the unit off.

# annotated cases, reported EC20 Pericard size Increase shown
{"columns": ["Molecule", "Measured target", "Quantity unit", "Numeric readout"],
 "data": [
  ["CCCCC(O)(Cn1cncn1)c1ccc(Cl)cc1Cl (configuration not stated) [Hexaconazole]", "Danio rerio embryo", "µM", 16.9],
  ["Cc1ccc(-c2cc(C(F)(F)F)nn2-c2ccc(S(N)(=O)=O)cc2)cc1 [Celecoxib]", "Danio rerio embryo", "µM", 9.76],
  ["CC(C)(C)C(O)/C(=C/c1ccc(Cl)cc1Cl)n1cncn1 (configuration not stated) [Diniconazole]", "Danio rerio embryo", "µM", 3.81],
  ["CNCCC=C1c2ccccc2CCc2ccccc21 [Nortriptyline]", "Danio rerio embryo", "µM", 17.8],
  ["CCC(=O)OCC(=O)[C@@]1(OC(=O)CC)[C@@H](C)C[C@H]2[C@@H]3CCC4=CC(=O)C=C[C@]4(C)[C@@]3(F)[C@@H](O)C[C@@]21C [betamethasone dipropionate]", "Danio rerio embryo", "µM", 0.000209],
  ["CCCCOC(=O)[C@@H](C)Oc1ccc(Oc2ccc(C(F)(F)F)cn2)cc1 [fluazifop-p-butyl]", "Danio rerio embryo", "µM", 0.834],
  ["CSc1nc2cc(Cl)c(Oc3cccc(Cl)c3Cl)cc2[nH]1 [Triclabendazole]", "Danio rerio embryo", "µM", 0.775],
  ["COC(=O)Nc1nc2cc(Sc3ccccc3)ccc2[nH]1 [Fenbendazole]", "Danio rerio embryo", "µM", 0.073]
]}

Challenge: Please report EC20 Pericard size Increase for the following molecule: C[Si](Cn1cncn1)(c1ccc(F)cc1)c1ccc(F)cc1 [Flusilazole]
Response given: 5.53

Challenge: Look up and report measured EC20 Pericard size Increase for this entry: O=C(O)CCc1nc(-c2ccccc2)c(-c2ccccc2)o1 [Oxaprozin]
Response given: 14.1

Challenge: Using known records, supply EC20 Pericard size Increase for CC(=O)OCC(=O)[C@@]1(OC(C)=O)[C@@H](C)C[C@H]2[C@@H]3C[C@H](F)C4=CC(=O)C=C[C@]4(C)[C@@]3(F)[C@@H](O)C[C@@]21C [diflorasone diacetate]
Response given: 0.127

Challenge: Give EC20 Pericard size Increase for CCCNCC(O)COc1ccccc1C(=O)CCc1ccccc1 (configuration not stated) [Propafenone]
Response given: 18.8

Challenge: Determine its reported EC20 Pericard size Increase: CC(C)(C)C(O)C(Oc1ccc(Cl)cc1)n1cncn1 (configuration not stated) [Triadimenol]
Response given: 71

Challenge: Write down EC20 Pericard size Increase measured for item CN(Cc1cnc2nc(N)nc(N)c2n1)c1ccc(C(=O)N[C@@H](CCC(=O)O)C(=O)O)cc1 [Methotrexate]
Response given: 193

Challenge: // Input: Cc1cc2c(s1)Nc1ccccc1N=C2N1CCN(C)CC1 [Olanzapine] . Output its EC20 Pericard size Increase only.
Response given: 34.1

Challenge: Quick one: give measured EC20 Pericard size Increase for O=C(O)Cc1ccccc1Nc1c(Cl)cccc1Cl [Diclofenac]
Response given: 6.72

Challenge: Tell us which EC20 Pericard size Increase value is on record for CC(=O)Nc1ccc(O)cc1 [Acetaminophen]
Response given: 2500

---

# EC50 Head size Decrease listing for each entry below
- Test system: Danio rerio embryo
- Measurement notes: EC50 Head size_Decrease
- Study conditions: exposure time: 4 dpf
Express the result in µM but write the number alone.

{"columns": ["Compound", "Numeric readout"],
 "data": [
  ["CCOC(=O)N1CCC(=C2c3ccc(Cl)cc3CCc3cccnc32)CC1", 14.1],
  ["O=C(O)CCc1nc(-c2ccccc2)c(-c2ccccc2)o1", 43.4],
  ["CCCNCC(O)COc1ccccc1C(=O)CCc1ccccc1 (centres undefined)", 31]
]}

Next:
Challenge: Entry `COc1cccc2c1C(=O)c1c(O)c3c(c(O)c1C2=O)C[C@@](O)(C(C)=O)C[C@@H]3O[C@H]1C[C@H](N)[C@H](O)[C@H](C)O1` needs its EC50 Head size Decrease filled in; supply it.
Response given: 43.4

---

- System: Danio rerio embryo
- Measurement notes: EC50 Eye-jaw distance_Decrease
- Study conditions: exposure time: 4 dpf
Endpoint label: EC50 Eye-jaw distance Decrease (µM)
Give the value, in units of µM, as a plain number.

Known EC50 Eye-jaw distance Decrease results, listed for orientation:
{"columns": ["Compound", "Quantity unit", "Numeric readout"],
 "data": [
  ["C[Si](Cn1cncn1)(c1ccc(F)cc1)c1ccc(F)cc1", "µM", 3.73],
  ["CCCCC(O)(Cn1cncn1)c1ccc(Cl)cc1Cl (stereo not given)", "µM", 13.1],
  ["CCCNCC(O)COc1ccccc1C(=O)CCc1ccccc1 (stereo not given)", "µM", 20.6],
  ["Cc1ccc(-c2cc(C(F)(F)F)nn2-c2ccc(S(N)(=O)=O)cc2)cc1", "µM", 15.9]
]}

Below: the item to evaluate.
Challenge: Consider the compound `CC(=O)Nc1ccc(O)cc1` and give its recorded EC50 Eye-jaw distance Decrease.
Response given: 2830

---

- Test system: Danio rerio embryo
- Measurement notes: EC10 Eye-jaw distance_Decrease; higher = less potent
- Study conditions: exposure time: 4 dpf
// EC10 Eye-jaw distance Decrease lookup, one value per entry
Please state the figure in µM; there is no need to write the unit.

Past entries and their recorded results:
{"columns": ["Compound", "Numeric readout"],
 "data": [
  ["COC(=O)Nc1nc2cc(Sc3ccccc3)ccc2[nH]1", 0.053],
  ["CN(Cc1cnc2nc(N)nc(N)c2n1)c1ccc(C(=O)N[C@@H](CCC(=O)O)C(=O)O)cc1 [Methotrexate]", 122]
]}

Kindly review the next compound as well.
Challenge: Identify EC10 Eye-jaw distance Decrease associated with the compound CCO/N=C(\CC)C1=C(O)CC(c2c(C)cc(C)cc2C)CC1=O (stereo not drawn)
Response given: 84.3

---

- Tested on: Danio rerio embryo
- Measurement notes: EC50 Eye-jaw distance_Decrease
- Study conditions: exposure time: 4 dpf
Binarize EC50 Eye-jaw distance Decrease at 2000 nM; below is Satisfied, at or above is Not satisfied.

{"columns": ["Molecule", "Assigned label"],
 "data": [
  ["CCCCOC(=O)[C@@H](C)Oc1ccc(Oc2ccc(C(F)(F)F)cn2)cc1 [fluazifop-p-butyl]", "Not satisfied"],
  ["COC(=O)Nc1nc2cc(Sc3ccccc3)ccc2[nH]1 [Fenbendazole]", "Satisfied"],
  ["CC(C)(C)C(O)C(Oc1ccc(Cl)cc1)n1cncn1 (stereo not given) [Triadimenol]", "Not satisfied"],
  ["CSc1nc2cc(Cl)c(Oc3cccc(Cl)c3Cl)cc2[nH]1 [Triclabendazole]", "Satisfied"]
]}

Next up:
Challenge: Field: below-cutoff. Rule: recorded EC50 Eye-jaw distance Decrease strictly less than 2000 nM. Subject: CC(C)(C)C(O)/C(=C/c1ccc(Cl)cc1Cl)n1cncn1 (stereo not given) [Diniconazole]
Response given: Not satisfied

---

Catalogue of EC20 Yolk sac size Increase values
- System: Danio rerio embryo
- Measurement notes: EC20 Yolk sac size_Increase; higher = less potent
- Study conditions: exposure time: 4 dpf
The reply should be a number in µM, with the unit left off.

These recorded examples may help you get a feel for the data.
{"columns": ["Compound", "Quantity unit", "EC20 Yolk sac size Increase"],
 "data": [
  ["O=C(O)CCc1nc(-c2ccccc2)c(-c2ccccc2)o1", "µM", 16.3],
  ["CCOC(=O)N1CCC(=C2c3ccc(Cl)cc3CCc3cccnc32)CC1", "µM", 6.74],
  ["CSc1nc2cc(Cl)c(Oc3cccc(Cl)c3Cl)cc2[nH]1", "µM", 0.533]
]}

Read the next record carefully.
Challenge: Give recorded EC20 Yolk sac size Increase. `CNCCC=C1c2ccccc2CCc2ccccc21`
Response given: 18.7
